Test: PAMPA BBB permeability
Format: in vitro ADME
Settings: −logPe, pH 7.4, 25 °C, 4 h, lipid BBB-1
measuredProperty: pPe pH 7.4 BBB PAMPA
Output spec: single numeric token, no unit.

Req: Suppose we examine the compound `Cn1cc(CNC(=O)N2CCC(C(N)=O)CC2)c(-c2ccccc2)n1` ; what pPe pH 7.4 BBB PAMPA value has been reported?
Resp: 5.008

Req: Name the recorded pPe pH 7.4 BBB PAMPA for `O=C(CCn1ccc2ccccc21)NCCCn1cnc2ccccc21` .
Resp: 4.452

Req: What value of pPe pH 7.4 BBB PAMPA has been recorded for this entry: `O=C(Cn1ccc2ccccc21)NCCOc1cccc2cccnc12`
Resp: 4.146

Req: So what does the record say about pPe pH 7.4 BBB PAMPA for `CC(C)n1cc(CC(=O)NCCc2ccc(O)cc2)c2ccccc21` ?
Resp: 4.311

Req: May I ask what pPe pH 7.4 BBB PAMPA has been recorded for `CN(Cc1ccccc1-c1ccccc1)C(=O)CCn1ccccc1=O` ?
Resp: 4.540

Req: pPe pH 7.4 BBB PAMPA lookup needed for `Cn1cc(CNCCc2cccc3cccnc23)c(-c2cccnc2)n1` , thanks.
Resp: 4.267

Req: Name the recorded pPe pH 7.4 BBB PAMPA for `COc1ccc(CC(=O)N[C@@H](CO)[C@@H](O)c2ccc(N)cc2)cc1` .
Resp: 4.731

Req: May I ask what pPe pH 7.4 BBB PAMPA has been recorded for `Cn1cc(CNCc2ccc3ncccc3c2)c(-c2ccccc2F)n1` ?
Resp: 4.258

Req: Field request: pPe pH 7.4 BBB PAMPA | item: `O=C(Cn1c(=O)[nH]c(=O)c2ccccc21)NCCc1cccc(F)c1`
Resp: 4.628

Req: For the compound `O=C(CCn1nc(-c2ccccc2)ccc1=O)NCCc1ccccc1` , what pPe pH 7.4 BBB PAMPA is on record?
Resp: 4.294

* * *

Molecular target: AChE from Electrophorus electricus (eeAChE) (Electrophorus electricus)
Construct: purchased Sigma Aldrich
Sequence (O42275 24-633): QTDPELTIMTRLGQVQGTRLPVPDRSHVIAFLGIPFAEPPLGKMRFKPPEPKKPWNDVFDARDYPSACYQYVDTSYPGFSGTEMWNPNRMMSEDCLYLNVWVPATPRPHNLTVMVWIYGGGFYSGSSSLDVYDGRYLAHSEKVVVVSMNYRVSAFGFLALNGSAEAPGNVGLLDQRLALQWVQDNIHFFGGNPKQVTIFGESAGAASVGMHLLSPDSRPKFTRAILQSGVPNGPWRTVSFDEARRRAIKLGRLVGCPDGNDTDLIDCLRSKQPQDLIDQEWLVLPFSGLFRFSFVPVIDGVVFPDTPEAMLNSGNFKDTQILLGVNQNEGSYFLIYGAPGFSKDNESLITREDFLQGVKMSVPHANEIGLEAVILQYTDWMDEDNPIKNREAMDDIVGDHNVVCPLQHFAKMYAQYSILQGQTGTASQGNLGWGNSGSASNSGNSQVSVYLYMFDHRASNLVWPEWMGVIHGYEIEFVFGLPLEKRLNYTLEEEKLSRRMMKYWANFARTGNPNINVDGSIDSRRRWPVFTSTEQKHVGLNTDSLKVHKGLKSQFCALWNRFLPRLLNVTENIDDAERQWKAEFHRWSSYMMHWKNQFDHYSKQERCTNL
Assay: biochemical
Format: binding
Settings: ITC, read-out: Kd
Would you kindly list pKd for each of these compounds?
Remember, pKd is on a log scale: it is -log10 of the molar concentration.

Req: Tell me reported pKd for `Cn1cc(CNCCc2cccc3cccnc23)c(-c2cccnc2)n1` , tested with AChE from Electrophorus electricus (eeAChE) (Electrophorus electricus).
Resp: 6.24

Req: API: value(readout= pKd, system= AChE from Electrophorus electricus (eeAChE) (Electrophorus electricus), query= `COc1ccc(CC(=O)N[C@@H](CO)[C@@H](O)c2ccc(N)cc2)cc1` )
Resp: 6.17

Req: Test system AChE from Electrophorus electricus (eeAChE) (Electrophorus electricus); read-out pKd; what value for `O=C(CCn1ccc2ccccc21)NCCCn1cnc2ccccc21` ?
Resp: 6.21

Taken from paper PMC6010092.
